Target System: UniProt O00329
Sequence (O00329 whole entry, canonical isoform): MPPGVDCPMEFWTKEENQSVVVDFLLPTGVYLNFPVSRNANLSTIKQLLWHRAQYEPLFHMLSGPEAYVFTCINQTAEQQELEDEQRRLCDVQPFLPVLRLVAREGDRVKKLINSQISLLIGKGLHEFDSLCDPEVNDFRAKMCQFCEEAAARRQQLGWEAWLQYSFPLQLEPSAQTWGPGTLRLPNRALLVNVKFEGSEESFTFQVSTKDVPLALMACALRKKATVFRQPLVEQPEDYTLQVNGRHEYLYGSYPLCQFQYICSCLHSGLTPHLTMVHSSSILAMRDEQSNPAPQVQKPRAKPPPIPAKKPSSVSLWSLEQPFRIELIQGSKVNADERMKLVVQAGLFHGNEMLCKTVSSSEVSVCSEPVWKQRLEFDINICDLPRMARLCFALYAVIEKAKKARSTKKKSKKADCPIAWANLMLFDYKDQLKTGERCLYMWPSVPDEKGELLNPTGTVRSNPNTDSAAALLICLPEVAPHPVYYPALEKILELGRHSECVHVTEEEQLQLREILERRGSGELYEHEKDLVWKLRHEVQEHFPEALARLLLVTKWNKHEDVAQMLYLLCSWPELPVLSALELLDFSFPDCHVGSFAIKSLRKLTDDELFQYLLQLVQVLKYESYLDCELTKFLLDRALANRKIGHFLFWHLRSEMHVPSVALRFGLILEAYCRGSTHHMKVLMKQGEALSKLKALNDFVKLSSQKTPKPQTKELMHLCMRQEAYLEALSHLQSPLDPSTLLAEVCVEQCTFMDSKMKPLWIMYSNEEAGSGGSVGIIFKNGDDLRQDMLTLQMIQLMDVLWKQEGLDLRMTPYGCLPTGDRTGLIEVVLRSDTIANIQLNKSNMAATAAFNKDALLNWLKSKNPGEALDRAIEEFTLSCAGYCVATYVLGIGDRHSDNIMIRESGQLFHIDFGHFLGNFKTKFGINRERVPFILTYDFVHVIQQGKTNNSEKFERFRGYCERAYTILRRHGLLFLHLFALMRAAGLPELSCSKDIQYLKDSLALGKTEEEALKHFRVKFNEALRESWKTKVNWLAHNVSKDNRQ
Sequence (P27986 whole entry partner, canonical isoform): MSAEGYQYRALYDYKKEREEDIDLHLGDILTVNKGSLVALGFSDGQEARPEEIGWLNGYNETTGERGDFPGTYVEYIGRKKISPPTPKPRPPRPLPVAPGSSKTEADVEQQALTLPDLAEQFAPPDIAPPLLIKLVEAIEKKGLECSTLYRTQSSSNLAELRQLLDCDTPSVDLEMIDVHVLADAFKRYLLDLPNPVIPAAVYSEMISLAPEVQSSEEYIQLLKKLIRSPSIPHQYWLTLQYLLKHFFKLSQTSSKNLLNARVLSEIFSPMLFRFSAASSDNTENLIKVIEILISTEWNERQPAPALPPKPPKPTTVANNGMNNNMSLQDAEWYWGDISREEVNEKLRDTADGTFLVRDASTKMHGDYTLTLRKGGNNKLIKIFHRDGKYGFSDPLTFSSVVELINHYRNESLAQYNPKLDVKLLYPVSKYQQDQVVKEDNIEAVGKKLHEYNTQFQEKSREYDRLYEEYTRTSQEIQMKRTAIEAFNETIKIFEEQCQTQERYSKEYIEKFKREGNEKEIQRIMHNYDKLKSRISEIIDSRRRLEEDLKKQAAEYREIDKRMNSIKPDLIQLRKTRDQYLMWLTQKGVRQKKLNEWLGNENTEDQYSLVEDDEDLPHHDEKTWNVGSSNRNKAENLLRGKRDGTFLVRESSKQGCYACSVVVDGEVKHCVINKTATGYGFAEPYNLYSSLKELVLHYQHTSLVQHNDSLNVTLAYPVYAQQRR
Assay Info: PI3K HTRF enzymatic inhibition assay (cell-free, Millipore kit), PI3Kd isoform
Experimental Parameters: recombinant PI3Kd 0.60 nM, PIP2 2 µM, ATP 20 µM, incubation 8 minutes
Attribute Measured: IC50 (nM)

>  <Chemical String>
C[C@H](Nc1ncnc2[nH]cnc12)c1nc2cc(F)cnc2n1-c1ccccc1

>  <IC50 / nM>
165

$$$$

(I) Cc1ccc2nc([C@H](C)Nc3ccnc4ccnn34)n(-c3ccccc3)c2n1
(II) C[C@H](Nc1ncnc2[nH]cnc12)c1nc2ncccc2n1-c1ccccc1
*Q* Quick one: lower IC50, I or II ? Label of pick, please.
*A* I
(I: 693 nM, II: 1800 nM)

(I) C[C@H](Nc1nc(N)nc2[nH]cnc12)c1nc2cccnc2n1-c1ccccc1
(II) CC[C@H](Nc1ncnc2[nH]cnc12)c1nc2ccc(OC)nc2n1-c1ccccc1
(III) Cc1ccc2nc([C@H](C)Nc3ncnc(N)c3C#N)n(-c3ccccc3)c2n1
*Q* Could you please order the items by IC50, going from the lowest number to the highest? I would appreciate it if you listed the labels in the requested order.
*A* II, III, I

(P) COc1ccc2nc([C@H](C)Nc3ncnc4[nH]cnc34)n(-c3ccccc3)c2n1
(Q) C[C@H](Nc1ncnc2[nH]cnc12)c1nc2cccnc2n1-c1cc(F)cc(F)c1
*Q* Looking only at measured IC50, which entry is lower, P or Q ? Select an item and report its label.
*A* P
(P: 31.6 nM, Q: 188 nM)

---

Target System: UniProt O00329
Assay Info: PI3K HTRF enzymatic inhibition assay (cell-free, Millipore kit), PI3Kd isoform
Experimental Parameters: recombinant PI3Kd 0.60 nM, PIP2 2 µM, ATP 20 µM, incubation 8 minutes
Attribute Measured: IC50 (nM)

(1) COc1ccc2nc([C@H](C)Nc3ncnc(N)c3C#N)n(-c3ccccc3)c2n1
(2) C[C@H](Nc1ncnc(N)c1C#N)c1nc2cccnc2n1-c1ccccc1
(3) COc1ccc2nc([C@H](C)Nc3ncnc4[nH]cnc34)n(-c3cc(F)cc(F)c3)c2n1
(4) C[C@H](Nc1ncnc2[nH]cnc12)c1nc2cccnc2n1-c1ccccc1Cl
*Q* I would appreciate it if you could sort these 4 molecules by IC50, starting from the smallest number. Sort and list the labels as requested.
*A* 3, 1, 2, 4
(3: 10.9 nM, 1: 22.2 nM, 2: 132 nM, 4: 215 nM)
